# System: Sam68 (KHDRBS1)
# protocol.description: compounds binding KHDRBS1 protein – biochemical, small-molecule microarray, 635 nm fluorescence, primary screen (AID 1125);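 note: score merges 667 nm channel intensity with signal to noise over triplicate slides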
# run.parameters: higher = more signal
Each entry falls into one class according to its composite z-score; the ranges are zone 1 (below 0.2), zone 2 (0.2 to below 1), zone 3 (1 or more)

{"compound": "COCCCNC(=O)[C@@H]1c2ccccc2C(=O)N(Cc2ccc(OC(F)(F)F)cc2)[C@H]1c1ccc(CO)cc1", "study.target": "Sam68 (KHDRBS1)", "category.label": "zone 2"}
{"compound": "C=C(COC)/C(=C/C[C@@H](OC(C)=O)c1ccccc1OCCO)c1cnc2ccccc2c1", "study.target": "Sam68 (KHDRBS1)", "category.label": "zone 3"}
{"compound": "COc1ccc(C#Cc2ccc3c(c2)[C@]2(C(=O)N3)[C@H](C(=O)O)[C@H]3C(=O)O[C@H](c4ccccc4)[C@H](c4ccccc4)N3[C@@H]2c2ccccc2OCCO)cc1", "study.target": "Sam68 (KHDRBS1)", "category.label": "zone 3"}
{"compound": "CN(C)CCCNC(=O)[C@@]1(C)c2ccccc2C(=O)N(Cc2ccc(OC(F)(F)F)cc2)[C@H]1c1ccc(CO)cc1", "study.target": "Sam68 (KHDRBS1)", "category.label": "zone 1"}
{"compound": "CC[C@@H]1C=C(C(=O)O)[C@H](c2ccc(OC)cc2)N1S(=O)(=O)c1ccc(C)cc1", "study.target": "Sam68 (KHDRBS1)", "category.label": "zone 1"}
{"compound": "[N-]=[N+]=NCc1ccccc1[C@@H]1OC(c2ccc(OCCCO)cc2)=N[C@]1(Cc1ccccc1N=[N+]=[N-])C(=O)NCC(O)CO (stereo partly drawn)", "study.target": "Sam68 (KHDRBS1)", "category.label": "zone 3"}
{"compound": "C[C@@H]1ON(c2ccc(I)cc2)[C@H](c2cccc(NC(=O)OCC3c4ccccc4-c4ccccc43)c2)[C@H]1C(=O)N1C(=O)OC[C@H]1Cc1ccccc1", "study.target": "Sam68 (KHDRBS1)", "category.label": "zone 2"}
{"compound": "C=C(CCCC)C(=O)CC[C@H](OC(=O)c1ccccc1-c1ccccc1C(=O)O)c1ccc(OCCO)cc1", "study.target": "Sam68 (KHDRBS1)", "category.label": "zone 2"}
{"compound": "CCCCC(O)C1C=CC2C(=O)N(c3ccccc3)C(=O)C2N1Nc1ccc([N+](=O)[O-])cc1 (stereo not drawn)", "study.target": "Sam68 (KHDRBS1)", "category.label": "zone 3"}
{"compound": "CC1CC/C=C\\[C@H]2OC34C=CCN(c5ccc6ccccc6c5)C(=O)[C@H]3N(C(C)CO)C(=O)[C@@H]4C2C(=O)O1 (stereo partly drawn)", "study.target": "Sam68 (KHDRBS1)", "category.label": "zone 1"}
{"compound": "O=C1O[C@@H](c2ccccc2)[C@@H](c2ccccc2)N2[C@@H](c3ccc(OCCO)cc3)[C@]3(C(=O)Nc4ccc(C#CCCO)cc43)[C@@H](C(=O)O)[C@H]12", "study.target": "Sam68 (KHDRBS1)", "category.label": "zone 3"}
{"compound": "COCCCNC(=O)[C@@]1(Sc2ccc(C)cc2)CC(=O)N(Cc2ccccc2C(F)(F)F)[C@@H]1c1ccc(CO)cc1I", "study.target": "Sam68 (KHDRBS1)", "category.label": "zone 1"}
{"compound": "COC(=O)[C@@]1(Cc2ccc(OC)cc2)[C@H]2c3cc(C(=O)N4CCCC4)n(Cc4c(CO)[nH]cc(C)c4=O)c3C[C@H]2CN1C(=O)c1ccccc1", "study.target": "Sam68 (KHDRBS1)", "category.label": "zone 2"}
{"compound": "CC(C)C(=C=CC[C@H](O)c1ccccc1OCCO)C[C@H](O)COCc1ccccc1", "study.target": "Sam68 (KHDRBS1)", "category.label": "zone 2"}
{"compound": "COc1ccc(C(=O)Nc2cccc(CN3C(=O)[C@]4(O[C@H](CC(=O)N5Cc6ccccc6C[C@H]5CO)[C@@H]([Si](C)(C)c5ccc(OC)cc5)[C@@H]4C)c4ccccc43)c2)cc1", "study.target": "Sam68 (KHDRBS1)", "category.label": "zone 3"}
{"compound": "C=CCC(OC(C)=O)[C@@H]1[C@@H](N(Cc2cccc3ccccc23)C(=O)Cc2ccc(OC)cc2)c2cc(OCCCO)ccc2N1C(=O)Cc1ccc2ccccc2c1 (stereo partly drawn)", "study.target": "Sam68 (KHDRBS1)", "category.label": "zone 1"}
{"compound": "COCCOC(=O)N1C(=O)[C@@]2(c3cc(C#Cc4ccc(OC)cc4)ccc31)[C@H](c1ccc(OCCO)cc1)N1[C@H](c3ccccc3)[C@H](c3ccccc3)OC(=O)[C@H]1[C@@H]2C(=O)NC[C@H](O)c1ccccc1", "study.target": "Sam68 (KHDRBS1)", "category.label": "zone 3"}
{"compound": "CC1CC/C=C\\[C@H]2OC34C=CCN(Cn5nnc6ccccc65)C(=O)[C@H]3N(CCCCCCO)C(=O)[C@@H]4C2C(=O)O1 (stereo partly drawn)", "study.target": "Sam68 (KHDRBS1)", "category.label": "zone 1"}
{"compound": "O=C1O[C@H](Cc2ccccc2)[C@@H]2[C@H]3C=CCCC=C3CN2[C@H]1Cc1ccc(O)cc1", "study.target": "Sam68 (KHDRBS1)", "category.label": "zone 1"}
{"compound": "COC(=O)[C@@]1(Cc2ccc(F)cc2)[C@H]2c3cc(C(=O)N4CCCC4)n(CCc4ccccn4)c3C[C@H]2CN1C(=O)c1ccccc1", "study.target": "Sam68 (KHDRBS1)", "category.label": "zone 1"}
{"compound": "N#Cc1ccc(-c2cccc(=O)o2)cc1", "study.target": "Sam68 (KHDRBS1)", "category.label": "zone 2"}
{"compound": "O=C1O[C@@H](c2ccccc2)[C@@H](c2ccccc2)N2[C@@H](c3ccccc3OCCO)[C@]3(C(=O)Nc4ccc(C#CCCO)cc43)[C@@H](C(=O)NC[C@H](O)c3ccccc3)[C@H]12", "study.target": "Sam68 (KHDRBS1)", "category.label": "zone 3"}
{"compound": "C[N+](C)(C)CCCCNC(=O)[C@H]1C[C@H]2C(=O)N[C@@H](Cc3ccccc3)C(=O)N2[C@H]1c1cccc(OCCO)c1", "study.target": "Sam68 (KHDRBS1)", "category.label": "zone 2"}
{"compound": "O=C(NC1CC1)[C@@H]1c2ccccc2C(=O)N(Cc2cc(C(F)(F)F)cc(C(F)(F)F)c2)[C@H]1c1ccc(CO)cc1", "study.target": "Sam68 (KHDRBS1)", "category.label": "zone 1"}
{"compound": "O=C1O[C@@H](c2ccccc2)[C@@H](c2ccccc2)N2[C@@H](c3ccc(OCCO)cc3)[C@]3(C(=O)Nc4ccc(C#CC5(O)CCCCCC5)cc43)[C@@H](C(=O)O)[C@H]12", "study.target": "Sam68 (KHDRBS1)", "category.label": "zone 3"}
{"compound": "CCCCCC1=C2CNC(CC(C)C)(C(=O)OC)C=C2C(C)C1=O (stereo not drawn)", "study.target": "Sam68 (KHDRBS1)", "category.label": "zone 3"}
{"compound": "CCOC(=O)C1=CC[C@@H](c2ccc(OC)cc2)N(S(=O)(=O)c2ccc(C)cc2)[C@H]1CC", "study.target": "Sam68 (KHDRBS1)", "category.label": "zone 3"}
